Molecular target: Protein skinhead-1 (Caenorhabditis elegans, UniProt P34707)
Sequence (P34707 whole entry): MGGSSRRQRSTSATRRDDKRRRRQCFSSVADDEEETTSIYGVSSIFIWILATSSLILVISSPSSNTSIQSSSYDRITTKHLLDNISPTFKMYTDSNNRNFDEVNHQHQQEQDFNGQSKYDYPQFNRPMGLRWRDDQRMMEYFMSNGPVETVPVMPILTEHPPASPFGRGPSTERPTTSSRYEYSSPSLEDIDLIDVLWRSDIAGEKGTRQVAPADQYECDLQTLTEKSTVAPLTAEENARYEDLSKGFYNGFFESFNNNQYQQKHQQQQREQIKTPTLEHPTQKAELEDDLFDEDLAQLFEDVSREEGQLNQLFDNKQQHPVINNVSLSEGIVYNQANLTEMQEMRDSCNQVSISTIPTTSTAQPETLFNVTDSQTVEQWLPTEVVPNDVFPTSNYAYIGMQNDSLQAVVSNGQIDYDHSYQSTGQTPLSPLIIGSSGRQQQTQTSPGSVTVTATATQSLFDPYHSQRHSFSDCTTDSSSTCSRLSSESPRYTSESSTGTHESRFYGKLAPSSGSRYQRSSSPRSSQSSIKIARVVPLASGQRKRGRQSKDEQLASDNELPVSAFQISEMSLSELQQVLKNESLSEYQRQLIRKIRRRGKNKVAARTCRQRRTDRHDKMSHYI
Type: functional
Active and inactive are the calls of the source.
Hi! Could you answer with just one of these? active, inactive

Q. Lab log entry: `O=C(/C=C/c1ccccc1)Nn1cnnc1` — outcome as called in the assay?
A. inactive

Q. Lab log entry: Cc1cc(N2CCOCC2)nc2ccc(NC(=O)C3CCC(C)CC3)cc12 (stereo unspecified) — outcome as called in the assay?
A. inactive

Q. Lab log entry: `Cc1ccc(CSc2nnc(-c3ccco3)o2)cc1` — outcome as called in the assay?
A. active

Q. Lab log entry: C=CCN1C(=O)C2(C(C(=O)OCC)=C(N)Oc3ccccc32)C2=C1CCCC2=O (stereo unspecified) — outcome as called in the assay?
A. inactive

Q. Lab log entry: `CC(=O)Nc1cccc(OCC(=O)NS(=O)(=O)c2ccc(Cl)cc2)c1` — outcome as called in the assay?
A. inactive

Q. Lab log entry: `O=c1c2ccccc2ccc2ccccc12` — outcome as called in the assay?
A. active

Q. Lab log entry: `Cc1cc(NC(=O)CCc2ccc(C)o2)no1` — outcome as called in the assay?
A. inactive

Q. Lab log entry: `COc1ccc2cc(N3CCCC3=O)ccc2c1` — outcome as called in the assay?
A. inactive

Q. Lab log entry: `O=C(CCN1CCCCCC1)Nc1ccccc1F` — outcome as called in the assay?
A. inactive

Q. Lab log entry: O=C(CSc1nnc(COc2ccc(Cl)cc2)o1)NC1CC2CCC1C2 (stereo unspecified) — outcome as called in the assay?
A. inactive

Q. Lab log entry: C=C1CCC[C@]2(C)C[C@H]3OC(=O)C(CNCCN(C)C)[C@H]3CC12 (stereo partly specified) — outcome as called in the assay?
A. inactive

----------
I'd be grateful if you could share measured IC50 for these entries.
target: Induced myeloid leukemia cell differentiation protein Mcl-1 (Homo sapiens, UniProt Q07820); type: functional
Sequence (Q07820 whole entry): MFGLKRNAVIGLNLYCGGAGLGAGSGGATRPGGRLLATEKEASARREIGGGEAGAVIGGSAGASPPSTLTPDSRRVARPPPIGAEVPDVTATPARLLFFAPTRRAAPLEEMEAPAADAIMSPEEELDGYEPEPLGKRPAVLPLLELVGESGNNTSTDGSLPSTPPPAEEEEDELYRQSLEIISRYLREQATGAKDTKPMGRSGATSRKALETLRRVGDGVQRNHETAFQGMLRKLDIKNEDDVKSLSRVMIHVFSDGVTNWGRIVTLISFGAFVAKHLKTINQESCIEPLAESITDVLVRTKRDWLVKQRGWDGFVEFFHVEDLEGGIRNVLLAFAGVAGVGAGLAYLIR
Active and inactive are the calls of the source.

The compound `N=C1S/C(=C\c2ccc(-c3cccc(Cl)c3)o2)C(=O)N1c1nccs1` , when measured on Induced myeloid leukemia cell differentiation protein Mcl-1 (Homo sapiens, UniProt Q07820), yielded IC50 of 0.745 µM (active)

The compound `Cc1ccc(-c2nn(-c3ccccc3)cc2/C=C2\SC(=S)N(CC(=O)O)C2=O)cc1` , when measured on Induced myeloid leukemia cell differentiation protein Mcl-1 (Homo sapiens, UniProt Q07820), yielded IC50 of 4.14 µM (active)

The compound `Cc1cc(/N=C/c2c(O)ccc3cc(Br)ccc23)no1` , when measured on Induced myeloid leukemia cell differentiation protein Mcl-1 (Homo sapiens, UniProt Q07820), yielded IC50 of > 54 µM (not active)

The compound `Cc1cc(O)n2nc(-c3ccsc3-n3c(C)ccc3C)cc2n1` , when measured on Induced myeloid leukemia cell differentiation protein Mcl-1 (Homo sapiens, UniProt Q07820), yielded IC50 of 4.96 µM (active)

The compound O=C(O)COc1ccccc1C(Nc1ccccn1)c1cc(Cl)c2cccnc2c1O (stereo not given) , when measured on Induced myeloid leukemia cell differentiation protein Mcl-1 (Homo sapiens, UniProt Q07820), yielded IC50 of 9.35 µM (active)

From: ChEMBL document CHEMBL1201862
